Reported blocking ELISA signal normalized to isotype control (=1) values for the following binders.
Target: T1, mouse IL-18BPd-human IgG Fc (R&D Systems, Cat. #122-BP-100) (mouse; human, UniProt Q9Z0M9 29-193)
T1 construct: Bought; also called mouse IL-18BPd-Fc Chimera
T1 sequence (looked up): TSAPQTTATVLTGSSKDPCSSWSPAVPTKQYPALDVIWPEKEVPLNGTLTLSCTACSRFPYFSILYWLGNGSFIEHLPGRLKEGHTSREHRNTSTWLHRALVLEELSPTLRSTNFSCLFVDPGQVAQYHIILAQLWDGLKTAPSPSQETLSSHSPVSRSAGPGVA
Test: blocking ELISA, competitor mouse IL-18
Measurement type: blocking ELISA signal normalized to isotype control (=1)

1. anti-IL18BP antibody BP-05 (antibody, human IgG1, V domains shown) VH: EVQLQQSGPELVKPGASVKIPCKASGYTFTDYNMDWVKQSHGKSLEWIGNINTNNGGTVYNQKFKDKATLTVDKSSSTAYMELRSLTSEDTAVYYCARSDTTVVASRYYALDYWGQGTSVTVSS VL: DIVLTQSPASLAMSLGKRATISCRASESVSIIGTDLIHWYQQKPGQPPKLLIYHASNLETGVPARFSGSGSRTDFTLTIDPVEEDDVAIYYCLQSRKIPPTFGGGTKLEIK; 0.138 ratio to isotype control
2. anti-IL18BP antibody BP-02 (antibody, human IgG1, V domains shown) VH: EVQLQQSGPELVKPGASVKIPCKASGYTFTDYNMDWVKQSHGKSLEWIGNINTNNGGTVYNQKFKGKATLTVDKSSSTAYMELRSLTSEDTAVYYCARSDTTVVASRYYAMDYWGQGTSVTVSL VL: DIVLTQSPASLAMSLGKRATISCRASESVSIIATNLIHWYQQKPGQPPKLLIYHASNLETGVPARFSGSGSRTDFTLTIDPVEKDDVAIYYCLQSRKIPPTFGGGTKLEIK; 0.132 ratio to isotype control
3. anti-IL18BP antibody BP-10 (antibody, human IgG1, V domains shown) VH: QVQLQQPGAERVEPGASVRLSCKTSGYTFTNYWMHWVKQRPGQGLEWIGMIHPESGSTNNNEKFKSKATLTVDKSSSTAYMQLSSLTSEDSAVYYCARWDRGYFDYWGQGTTLTVSS VL: DIVMTQSHKFMSTSVGDRVSITCKASQDVRSTVGWYQQRPGQSPKLLIYWTSTRHTGVPDRFTGSGSGTDYTLTISSVQAEDLALYYCQQHYSTPYTFGGGTTLEIK; 0.326 ratio to isotype control
4. anti-IL18BP antibody BP-06 (antibody, human IgG1, V domains shown) VH: QIQLQQSGPELVKPGASVKISCKASGYTFTDYYLNWVKQTPGQGLEWIGWIYPGSGNTKYTEKFKDKASLTVDTSSNTAYMQLSSLTSDDTAVYFCARRGVAWFAYWGQGTLVTVSA VL: DIKMTQSPSSIYASLGERVTITCKASQDINSYLSWFQQKPGKSPKTLIHRANRLVDGVPSRFSGSGSGQDYSLTISSLEYEDMGIYYCLQHDDFPPTFGAGTNLELK; 0.971 ratio to isotype control
5. anti-IL18BP antibody BP-12 (antibody, human IgG1, V domains shown) VH: EVQLQQSGPELVKPGASVKMSCKTSGYTFTEYTMHWVKQSHGKSLEWIGGVNPNNGGTTYNQKFRDKATLTVDKSSSTTYMEVRTLTSDDSAVYYCAPLWRVFDYWGQGTTLTVSS VL: DIVMTQSHKFMSSSVGDRVSITCKASQDVGTAVAWYQQKPGQSPKLLIYWASTRHTGVPDRFTGSGSGTDFTLTISNVQSEDLADYFCHQFSRYPLTFGAGTKLELK; 0.351 ratio to isotype control
